// data source = ChEMBL document CHEMBL1133078

Below, each entry is listed alongside its reported clearance.
# procedure.summary: Clearance value of compound was determined after intravenous administration of 1 mg/kg/h in dog
# Format: ADME, organism-based, Canis lupus familiaris
# Design: route intravenous
# test.context: in vivo
Kindly answer with a numeric value in mL/min/kg, unit omitted.

Example entries begin here.
COC[C@H]1ON=C(c2cccc(C(=N)N)c2)[C@@H]1C(=O)Nc1ccc(-c2ccccc2S(N)(=O)=O)cc1 :: 16.5
N=C(N)c1cccc(-c2nocc2C(=O)Nc2ccc(-c3ccccc3S(N)(=O)=O)cc2)c1 :: 25
COCc1onc(-c2cccc(C(=N)N)c2)c1C(=O)Nc1ccc(-c2ccccc2S(N)(=O)=O)cc1 :: 28.3

Shifting focus to the compound that follows.
### Prompt Complete the entry with clearance for N=C(N)c1cccc(C2=NO[C@H](Cn3cnnn3)[C@H]2C(=O)Nc2ccc(-c3ccccc3S(N)(=O)=O)cc2)c1
### Response 8.17
